# System: Staphylococcus aureus strain UAMS-1
# experiment: Antimicrobial susceptibility testing (MIC, broth microdilution)
# Type: cell-based
# assay setup: Staphylococcus aureus, UAMS1, 18 h, S. aureus UAMS-1, Mueller Hinton broth, 37° C., read-out: MIC
Item-by-item account of MIC

For orientation, consider the following solved cases.
molecule	test system	MIC
CC(C)c1ccc(CCNc2c(NCc3ccccn3)c(=O)c2=O)cc1 [MC-190086]	Staphylococcus aureus strain UAMS-1	> 128 µg/mL
O=C(NNC(=S)NC(=O)c1ccco1)c1ccncc1 [ST4145527]	Staphylococcus aureus strain UAMS-1	> 128 µg/mL
Cc1ccc(C(C)C)c(OCC(=O)NNC(=S)NC(=O)c2ccccc2OCCOc2ccccc2)c1 [ST5528960]	Staphylococcus aureus strain UAMS-1	> 128 µg/mL

Item: COc1ccccc1C(=O)NNC(=O)COc1ccc(C(C)C)cc1 [MC-190032] | System: Staphylococcus aureus strain UAMS-1 | MIC: > 128 µg/mL

Given the molecule O=C(NC(=S)NNC(=O)c1ccco1)c1ccc(F)c(F)c1 [ST5704832] and test system Staphylococcus aureus strain UAMS-1, the measured MIC is > 128 µg/mL

Bench note, Staphylococcus aureus strain UAMS-1: entry Cc1ccc(OCc2ccc(C(=O)NNC(=S)NCC(C)C)o2)c(C)c1 [ST5607269] , its MIC = > 128 µg/mL

COc1ccc2cc(C(=O)NNC(=O)COc3ccc(C(C)C)cc3)[nH]c2c1 [MC-190059] on Staphylococcus aureus strain UAMS-1 gives MIC = > 256 µg/mL

Short answer on Staphylococcus aureus strain UAMS-1 for COc1ccccc1OCC(=O)NNC(=S)NC(=O)c1ccco1 [ST5682778] , MIC: > 128 µg/mL

Staphylococcus aureus strain UAMS-1 assay, molecule CC(C)c1ccc(OCC(=O)NNC(=O)Cc2ccco2)cc1 [MC-190038] , recorded MIC = > 256 µg/mL

Response field MIC (Staphylococcus aureus strain UAMS-1) for item O=C(NC(=S)NNC(=O)c1ccco1)c1cccnc1 [ST5254088] : > 128 µg/mL

Record Cc1ccoc1C(=O)NNC(=O)COc1ccc(C(C)C)cc1 [MC-190040] / Staphylococcus aureus strain UAMS-1, MIC recorded as > 256 µg/mL

----------
# Tested on: Staphylococcus aureus strain UAMS-1
# experiment: Antimicrobial susceptibility testing (MIC, broth microdilution)
# Format: cell-based
# assay setup: Staphylococcus aureus, UAMS1, 18 h, S. aureus UAMS-1, Mueller Hinton broth, 37° C., read-out: MIC
parameter: MIC

Reference set, count: 2
compound	MIC
CC(C)c1ccc(OCC(=O)NNC(=S)NC(=O)c2cc3ccccc3s2)cc1 [MC-220001]	> 256 µg/mL
CCOc1ccccc1C(=O)NNC(=S)NC(=O)c1ccco1 [MC-190067]	8 to 16 µg/mL

MIC for CC(C)c1ccccc1OCC(=O)NNC(=S)NC(=O)c1ccccc1OCCOc1ccccc1 [ST5528880] is > 128 µg/mL

Data origin, for the record: patent US10028931B2
